test system: SK-BR-3; assay: Cytotoxicity against human SKBR3 cells assessed as cell viability at 100 uM after 72 hrs by MTS assay; format: functional; details: SK-BR-3, 72 h, read-out: Activity
QUANTITY_MEASURED: viability at 100 µM
Express the reported value numerically, then name its unit.

Examples from the recorded data:
| SAMPLE_SMILES | viability at 100 µM |
| --- | --- |
| O=S1(=O)COC[C@H](COCc2ccccc2)N1Cc1ccccc1 | 96% |
| CN1[C@H](COCc2ccccc2)COCS1(=O)=O | 82% |

Look at this compound and give its reported viability at 100 µM. O=C(OC[C@@H]1COCS(=O)(=O)N1Cc1ccccc1)c1ccccc1
100%

Return reported viability at 100 µM; argument: O=S1(=O)COC[C@@H](COCc2ccccc2)N1Cc1ccccc1
82%

I would be grateful if you could share the reported viability at 100 µM for O=S1(=O)COC[C@@H](COCc2ccc(-c3ccc(CBr)cc3)cc2)N1 .
10%

Given the entry O=S1(=O)COC[C@H](COCc2ccc(-c3ccc(CBr)cc3)cc2)N1 , report its measured viability at 100 µM.
20%

Sample CCCCCCCC/C=C\CCCCCCCCOC[C@@H]1COCS(=O)(=O)N1C — what was its viability at 100 µM?
65%

Quick one: viability at 100 µM for O=S1(=O)COC[C@@H](COCc2ccc(F)cc2)N1Cc1ccccc1 ?
96%

Fill in: viability at 100 µM of O=S1(=O)COC[C@@H](COCc2ccc(-c3ccccc3)cc2)N1 is ___
46%

Name the recorded viability at 100 µM for CN1[C@H](COCc2ccc(-c3ccccc3)cc2)COCS1(=O)=O .
52%

Reported viability at 100 µM for CN1[C@H](COCc2ccc3ccccc3c2)COCS1(=O)=O : what is it?
74%

====

Parameter viability at 12.5 µM: see the listing below.
system: SK-BR-3; assay: Cytotoxicity against human SKBR3 cells assessed as cell viability at 12.5 uM after 72 hrs by MTS assay; format: functional; details: SK-BR-3, 72 h, read-out: Activity
API: value field is a number in %; no unit string.

| SAMPLE_SMILES | UNIT | viability at 12.5 µM |
| --- | --- | --- |
| COc1cccc(COC[C@@H]2COCS(=O)(=O)N2Cc2ccccc2)c1 | % | 100 |
| O=S1(=O)COC[C@H](COCc2ccccc2)N1 | % | 94 |
| O=S1(=O)COC[C@@H](COCc2ccc(F)cc2)N1Cc1ccccc1 | % | 86 |
| CN1[C@H](COCc2ccc3ccccc3c2)COCS1(=O)=O | % | 82 |
| O=C(OC[C@@H]1COCS(=O)(=O)N1Cc1ccccc1)c1ccccc1 | % | 98 |

Now turn to the next compound.
Need viability at 12.5 µM of O=S1(=O)COC[C@@H](COCc2ccc(-c3ccccc3)cc2)N1 , thanks.
75

====

test system: SK-BR-3; test: Cytotoxicity against human SKBR3 cells assessed as cell viability at 25 uM after 72 hrs by MTS assay; assay type: functional; settings: SK-BR-3, 72 h, read-out: Activity
QUANTITY_MEASURED: viability at 25 µM (%)
Hi! Could you send only the number? It should be in %, unit omitted.

| SAMPLE_SMILES | viability at 25 µM [%] |
| --- | --- |
| CCCCCCCC/C=C\CCCCCCCCOC[C@H]1COCS(=O)(=O)N1Cc1ccccc1 | 81 |

Entry O=S1(=O)COC[C@@H](COCc2ccccc2)N1 , system SK-BR-3: what viability at 25 µM was measured?
100

Lab request: please report viability at 25 µM under test system SK-BR-3 for CN1[C@H](COCc2ccc(-c3ccccc3)cc2)COCS1(=O)=O
60

SK-BR-3 / viability at 25 µM / O=S1(=O)COC[C@@H](COCc2ccc(-c3ccccc3)cc2)N1 : value?
75
